Values compiled from patent US20230382979A1.

Below, each of the binders is paired with its reported Pseudo Neut, B1.351 IC50 (pM) value.
Biological target: SARS-CoV-2 spike protein, B1.351 (beta variant), borne on lentiviral pseudovirus (SARS-CoV-2, B1.351)
Test: cell-based or functional assay
Measurement Label: Pseudo Neut, B1.351 IC50 (pM)

[[record]]
binder = "antibody 2794 (antibody, V domains shown) VH: QVQLVQSGAEVKKPGSSLKVSCKASGGTFNNFAISWVRQAPGQGPEWMGRINPILSAAKYAQKFQGRLTITADKSTTTAYMELSSLRSEDTAVYYCAPTGTGESWWFDPWGQGTLVTVSS VL: QSVLTQPPSASGTPGQRVTISCSGSSSNIGTNYVYWYQQLPGTAPKVLIYGNNQRPSGVPDRFSGSKSGSSASLAISGLRSEDEADYYCAAWDDSLSGPVFGGGTKLTVL"
measurement_label = "Pseudo Neut, B1.351 IC50 (pM)"
result = "428 pM"

[[record]]
binder = "antibody 2892 (antibody, V domains shown) VH: QVQLVQSGAEVKKPGSSVKVSCKASGDAFISYAISWVRQAPGQGLEWMGGIIPIFGTANYAQKFQGRVTISADESTSTAYMELSRLRSEDTAVYYCARGGPEPYGSGSGYTPRYNWFDPWGQGTLVTVSS VL: QSALTQPRSVSGSPGQSVTISCTGTSSDVGGYNYVSWYQQHPGKAPKFMIYDVNRRPSGVPDRFSGSKSGNTASLTISGLQAEDEADYYCCSYAGTYTWVFGGGTKLTVL"
measurement_label = "Pseudo Neut, B1.351 IC50 (pM)"
result = "125 pM"

[[record]]
binder = "antibody 2564 (antibody, V domains shown) VH: QVQLVQSGAEVKKPGSSVRVSCKASGGTFISYTFNWVRQAPGQGLEWMGRIIPIFGIVNYAQKFQGRVTIAADKSTSTAYMELSSLRSEDTAMYYCATATVDYDSGEEQSSFDPWGQGTLVTVSS VL: EIVLTQSPGTLSLSPGERATLSCRASQSVSSSYLAWYQQKAGQTPRLLIYAASSRATGVPDRFSGSGSGTDFTLTISRLEAEDFAVYYCQQSWTFGQGTKVEIK"
measurement_label = "Pseudo Neut, B1.351 IC50 (pM)"
result = "196 pM"

